Tested on: Zea mays (ZEAMX)
Format: in vivo
Conditions: crop plant compatibility, 320 g/ha, effect vs untreated controls
VALUE_TYPE: Post-emergence action against ZEAMX in % (%)

Recorded results for 2 molecules are shown here.
CCOC(=O)[C@@H](C)Oc1nn(-c2ncccc2F)c(-c2ccc(F)nc2)c1F [Example I-320]    20
CCOC(=O)COc1nn(-c2ccccn2)c(-c2cncc(F)c2)c1Cl [Example I-147]    20

[A] O=C(O)COc1nn(-c2ccncc2)c(-c2ccc(F)nc2)c1Br [III-09]
[B] C[C@@H](Oc1nn(-c2ccccn2)c(-c2ccc(Cl)nc2)c1Br)C(=O)O [Example I-240]
# input Param metric = Post-emergence action against ZEAMX in %; output whichever of A , B has the minimum value. I would appreciate it if you answered with the label of your choice.
# output A
